The origin of these recorded values is ChEMBL document CHEMBL3286331.

Would you kindly list MIC for each of these molecules?
# System: Staphylococcus aureus
# assay overview: Antibacterial activity against Staphylococcus aureus ATCC 25923 after overnight incubation by disc diffusion method
# Assay type: functional

What value of MIC has been reported for the following molecule? CN(CC(=O)Nc1ccccc1[N+](=O)[O-])CC(O)Cn1c(=O)c2ccccc2n(C)c1=O.Cl (centres undefined)
≥ 512 µg/mL

What value of MIC has been reported for the following molecule? CN(CC(=O)NCc1ccc(Cl)cc1)CC(O)Cn1c(=O)c2ccccc2n(C)c1=O.Cl (centres undefined)
≥ 512 µg/mL

What value of MIC has been reported for the following molecule? CN(CC(=O)Nc1ccccc1Cl)CC(O)Cn1c(=O)c2ccccc2n(C)c1=O.Cl (centres undefined)
≥ 512 µg/mL

What value of MIC has been reported for the following molecule? Cc1ccc(NC(=O)CN(C)CC(O)Cn2c(=O)c3ccccc3n(C)c2=O)cc1.Cl (centres undefined)
≥ 512 µg/mL

What value of MIC has been reported for the following molecule? CN(CC(=O)Nc1ccc([N+](=O)[O-])cc1)CC(O)Cn1c(=O)c2ccccc2n(C)c1=O.Cl (centres undefined)
≥ 512 µg/mL

What value of MIC has been reported for the following molecule? COc1ccc(NC(=O)CN(C)CC(O)Cn2c(=O)c3ccccc3n(C)c2=O)cc1.Cl (centres undefined)
≥ 512 µg/mL

What value of MIC has been reported for the following molecule? CCN(CC)C(=O)CN(C)CC(O)Cn1c(=O)c2ccccc2n(C)c1=O.Cl (centres undefined)
≥ 512 µg/mL

What value of MIC has been reported for the following molecule? CN(CC(=O)N1CCCCC1)CC(O)Cn1c(=O)c2ccccc2n(C)c1=O.Cl (centres undefined)
≥ 512 µg/mL

What value of MIC has been reported for the following molecule? CN(CC(=O)N(C)c1ccccc1)CC(O)Cn1c(=O)c2ccccc2n(C)c1=O.Cl (centres undefined)
≥ 512 µg/mL
